Assay: Selectivity ratio of IC50 for HLF to IC50 for human A549 cells
Type: ADME, cell-based
Settings: HLF versus A549 cells, read-out: Ratio IC50
PROPERTY_NAME: selectivity ratio

In plain terms, COc1cc(C2CCCCc3c2ccc2c3ccn2C)cc(OC)c1OC (stereo unspecified) has a documented selectivity ratio of 76.1

---

Experiment: Selectivity ratio of IC50 for human BJ cells to IC50 for human A549 cells
Format: ADME, cell-based
Settings: BJ cells versus A549 cells, read-out: Ratio IC50
PROPERTY_NAME: selectivity ratio
Reply briefly: the number, and no unit.

In plain terms, COc1cc(C2CCCCc3c2ccc2c3ccn2C)cc(OC)c1OC (stereo unspecified) has a documented selectivity ratio of 55

---

Assay: Antiproliferative activity against human MCF7 cells measured after 48 hrs by MTT assay
Format: functional, cell-based
Conditions: MCF7, 48 h
Below, each of the compounds is paired with its reported pIC50 value.
Keep it numeric: pIC50 is minus log10 of the concentration in mol/L.

Example entries and their recorded answers appear below.
| COMPOUND | READOUT_VALUE |
| --- | --- |
| COc1cc(C2=CCCCc3c2ccc2[nH]ccc32)cc(OC)c1OC | 5.81 |
| COc1ccc(/C=C\c2cc(OC)c(OC)c(OC)c2)cc1O | 7.54 |
| CCn1ccc2c3c(ccc21)C(c1cc(OC)c(OC)c(OC)c1)=CCCC3 | 7.10 |

In plain terms, "COc1cc(C2=CCCCc3c2ccc2c3c(CO)cn2C)cc(OC)c1OC" has a documented pIC50 of 7.20

In plain terms, "COc1cc(C2=CCCCc3c2ccc2c3CCN2C)cc(OC)c1OC" has a documented pIC50 of 7.24

---

Assay: Selectivity ratio of IC50 for HUVEC in presence of fetal calf serum and absence of growth factor to IC50 for human A549 cells
Assay type: cell-based
Conditions: HUVEC versus A549 cells, read-out: Ratio IC50
PROPERTY_NAME: selectivity ratio
Reply briefly: the number, and no unit.

In plain terms, COc1cc(C2CCCCc3c2ccc2c3ccn2C)cc(OC)c1OC (stereo unspecified) has a documented selectivity ratio of 9.68

---

Assay: Antiproliferative activity against human MCF7 cells measured after 48 hrs by MTT assay
Type: functional, cell-based
Details: MCF7, 48 h
Below, each of the molecules is paired with its reported IC50 value.
# output: bare number, implied unit µM

Example entries and their recorded answers appear below.
| MOLECULE | READOUT_VALUE |
| --- | --- |
| CCCn1ccc2c3c(ccc21)C(c1cc(OC)c(OC)c(OC)c1)=CCCC3 | 0.78 |
| COc1cc(C2=CCc3c2ccc2c3ccn2C)cc(OC)c1OC | 0.449 |
| COc1cc(C2=CCCCc3c2ccc2c3c(C=O)cn2C)cc(OC)c1OC | 0.059 |
| COc1cc(C2=CCCCc3c2ccc2c3CCN2)cc(OC)c1OC | 0.812 |

In plain terms, "COc1cc(C2=CCCCc3c2ccc2[nH]cc(C=O)c32)cc(OC)c1OC" has a documented IC50 of 2.06

In plain terms, "COc1cc(C2=CCCCc3c2ccc2c3ccn2C)cc(OC)c1OC" has a documented IC50 of 0.069

In plain terms, COc1cc(C2CCCCc3c2ccc2c3ccn2C)cc(OC)c1OC (stereo not drawn) has a documented IC50 of 0.051
